Data origin: patent US20040092584A1

Would you kindly list IC50 for each of these compounds?
tested on: COR L23/CPR; test: Growth of cancer cell lines, MTT reactivity (COR L23/CPR); type: cell-based, human; conditions: mean drug concentration causing 50% cell killing, 3-4 experiments, 72 to 96 h, platinum resistant variant, read-out: IC 50 (μM) COR L23/CPR
Answers are plain numbers, in µM.

Some solved cases for reference:
C1=CCCC=CCC1.O=C(C=C([O-])C(F)(F)F)[c-]1cccc1.[Rh+].[Ru+2].c1cc[cH-]c1 [[Rh(rctfa)(cod)]] : 48
C1=CCCC=CCC1.O=C(C=C([O-])[c-]1cccc1)c1ccccc1.[Rh+].[Ru+2].c1cc[cH-]c1 [[Rh(brcm)(cod)]] : 14.1
C1=CCCC=CCC1.O=C(C=C([O-])C(Cl)(Cl)Cl)[c-]1cccc1.[Fe+2].[Rh+].c1cc[cH-]c1 : 2
C1=CCCC=CCC1.CC(=O)C=C([O-])[c-]1cccc1.[Rh+].[Ru+2].c1cc[cH-]c1 [[Rh(rca)(cod)]] : 2.74
C1=CCCC=CCC1.O=C(C=C([O-])C(F)(F)F)[c-]1cccc1.[Fe+2].[Rh+].c1cc[cH-]c1 [Rh(fctfa)(cod)] : 5.8
C1=CCCC=CCC1.O=C(C=C([O-])[c-]1cccc1)[c-]1cccc1.[Fe+2].[Rh+].[Ru+2].c1cc[cH-]c1.c1cc[cH-]c1 [[Rh(fcrcm)(cod)]] : 20.1
C1=CCCC=CCC1.O=C(C=C[O-])[c-]1cccc1.[Rh+].[Ru+2].c1cc[cH-]c1 [[Rh(RcH)(cod)]] : 39.6
O=C(CC(=O)C(Cl)(Cl)Cl)[c-]1cccc1.[Fe+2].c1cc[cH-]c1 : 20.1

Continue with the next compound.
Using the record for "C1=CCCC=CCC1.O=C(C=C([O-])c1ccccc1)[c-]1cccc1.[Fe+2].[Rh+].c1cc[cH-]c1" , report its IC50.
22

----------
Task for the reader: assign each of the following molecules its reported IC50.
test system: HeLa; assay: Growth of cancer cell lines, MTT reactivity (HeLa); assay type: cell-based, human; settings: mean drug concentration causing 50% cell killing, 3-4 experiments, 72 to 96 h, read-out: IC 50 (μM) HeLa
Give the number first and the unit second.

Please review the following examples before continuing.
C1=CCCC=CCC1.CC(=O)C=C([O-])[c-]1cccc1.[Rh+].[Ru+2].c1cc[cH-]c1 [[Rh(rca)(cod)]] : 4.86 µM
C1=CCCC=CCC1.CC([O-])=CC(=O)[c-]1cccc1.[Fe+2].[Rh+].c1cc[cH-]c1 : 64.4 µM

What value of IC50 has been reported for the following molecule? "C1=CCCC=CCC1.O=C(C=C([O-])C(Cl)(Cl)Cl)[c-]1cccc1.[Fe+2].[Rh+].c1cc[cH-]c1"
7.9 µM
